method: Human HepG2 cell viability assay in 384 well format
Assay type: toxicity, cell-based
Parameters: dose 125 nL, time 70.5 hour; concentration not given beside the values
particulars: HepG2 cells, read-out: Inhibition
quantity_measured: cytotoxicity at 70.5 h

See these solved cases before continuing.
compound=Cn1cc(CCCN2CCN(Cc3cccc(O)c3)CC2)cn1 quantity_measured="cytotoxicity at 70.5 h" result=-3.39%
compound="CN(C)C(C(=O)N1CCC(C#N)CC1)c1ccccc1F (configuration not stated)" quantity_measured="cytotoxicity at 70.5 h" result=-5.19%
compound=NC(=O)c1cc2c(nc1-c1ccc3c(c1)OCCO3)CCC2 quantity_measured="cytotoxicity at 70.5 h" result=-9.8%

Per the record, CCc1nnc(CN2CCN(CC(O)c3ccccc3)CC2)o1 (configuration not stated) has cytotoxicity at 70.5 h of -1.5%

Fc1cnc(N2CCC3(CC2)CN(Cc2cccs2)CCO3)nc1 has a reported cytotoxicity at 70.5 h of -6.3%

Recorded cytotoxicity at 70.5 h (compound c1csc(-c2noc(CNC3CCc4ncnn4C3)n2)c1 (configuration not stated) ): -8.26%

* * *

method: Human HepG2 cell viability assay in 384 well format
Type: toxicity, cell-based
Set-up: dose 125 nL, time 70.5 hour; concentration not given beside the values
particulars: HepG2 cells, read-out: Inhibition
Overview of recorded cytotoxicity at 70.5 h for various compounds
Give just the numeric value; % need not be written.

compound=Cc1ccc(S(=O)(=O)N2CCN(CCCO)CC2)s1 numeric_result=-2.4
compound="O=C1NCC2(CCCN(C(=O)Nc3ccc4scnc4c3)CC2)O1 (centres undefined)" numeric_result=-16.7
compound=COCCn1/c(=N\C(=O)CN(C)S(C)(=O)=O)sc2cc(C)ccc21 numeric_result=14.4
compound=O=C(c1cccnc1-c1ccoc1)N1C[C@H]2CC[C@@H]1C2 numeric_result=-10.4
compound=Cc1ccc(S(=O)(=O)Nc2ccc(N3CCOCC3)cn2)cc1 numeric_result=-3.69
compound="COc1ccc(C(NCc2ccc(C#N)cc2)C2CC2)cc1 (centres undefined)" numeric_result=-7.6
compound="Cc1nc(NC(=O)N2CCCC(N(C)C)C2)nn1C (centres undefined)" numeric_result=31.8
compound=CC(C)n1ccnc1C1CCN(c2nccc(C(F)(F)F)n2)CC1 numeric_result=5.98
compound="O=C1CCCN1Cc1ccc(C(=O)N2CCCC2c2cccs2)cc1 (centres undefined)" numeric_result=-6.75
compound=Cc1ccc(CNC(=O)c2nn(C)c3c2CS(=O)(=O)CC3)o1 numeric_result=-2.5

Entry CCCn1cc(NC(=O)c2cccc(CN3CC[C@H](O)C3)c2)nn1 ; cytotoxicity at 70.5 h = -11.9

Reported cytotoxicity at 70.5 h for Cc1nc(N(C)CCCc2nccn2C)c2c(C)nn(C)c2n1 was -6.47

// CCN(Cc1cc(Cl)ccc1OC)Cc1cc(C)nn1C : cytotoxicity at 70.5 h value = 2.1

CCCC(=O)Nc1ccc(CC(=O)N(C)CCc2cn[nH]c2)cc1 yielded cytotoxicity at 70.5 h of -7.4

* * *

method: Human HepG2 cell viability assay in 384 well format
Type: toxicity, cell-based
Parameters: dose 125 nL, time 70.5 hour; concentration not given beside the values
particulars: HepG2 cells, read-out: Inhibition
quantity_measured: cytotoxicity at 70.5 h (%)
Value expressed in %; do not type the unit.

In the examples that follow, each entry is paired with its recorded cytotoxicity at 70.5 h.
compound="Cc1nc(CNCC2CCCN2c2cccnn2)cs1 (configuration not stated)" readout_units=% numeric_result=2.56
compound=COc1ccccc1[C@@H]1CN(Cc2cc(C(C)(C)C)[nH]n2)C[C@H]1C(=O)O readout_units=% numeric_result=-7.86
compound="CCc1n[nH]c(C2CN(Cc3csc(C4CCCC4)n3)CCO2)n1 (configuration not stated)" readout_units=% numeric_result=6.69
compound=Cc1cccc(CN2C[C@@H](F)[C@@H](OCc3nc4ccccc4[nH]3)C2)n1 readout_units=% numeric_result=-1.57
compound=CCOCC(=O)N1CCc2c(CN(C)C)nn(C(C)C)c2C1 readout_units=% numeric_result=-4.01

Lab book: cytotoxicity at 70.5 h of CCc1noc(C)c1C(=O)N1C[C@H](NS(C)(=O)=O)[C@@H](C2CC2)C1 noted as -3.78

For this compound ( CCNC(=O)c1ccc2c(c1)nc1n2CCN(C(C)C)C1 ), measured cytotoxicity at 70.5 h is -9.53

Entry under test: COCC(=O)N1CC[C@]2(O)CCN(Cc3cccnc3OC)C[C@@H]2C1 . Its cytotoxicity at 70.5 h was -7.29

Documented cytotoxicity at 70.5 h of CC(C)CCS(=O)(=O)N1CCCC(c2nncn2C(C)C)C1 (configuration not stated) : -33.9

The compound CCCS(=O)(=O)N1CCN(c2ccnc(N3CCCCC3)n2)CC1 showed cytotoxicity at 70.5 h equal to -8.56

* * *

Recorded cytotoxicity at 70.5 h by entry
method: Human HepG2 cell viability assay in 384 well format
Assay type: toxicity, cell-based
Set-up: dose 125 nL, time 70.5 hour; concentration not given beside the values
particulars: HepG2 cells, read-out: Inhibition
Answer format: numeric, % implied, no suffix.

compound="Fc1cccc(-c2nnn3c2COC(CNCc2ccsc2)C3)c1 (stereo not drawn)" quantity_measured="cytotoxicity at 70.5 h" numeric_result=0.277
compound="CCc1csc(C2CCCN(C(=O)c3ccc4[nH]nnc4c3)C2)n1 (stereo not drawn)" quantity_measured="cytotoxicity at 70.5 h" numeric_result=-0.976
compound=O=C(c1cnccn1)N1C[C@@H]2CC[C@H](C1)N(C(=O)Cc1ccsc1)C2 quantity_measured="cytotoxicity at 70.5 h" numeric_result=-1.28
compound="OCCC1CN(c2nc(-c3ccncc3)nc3c2CCNCC3)CCO1 (stereo not drawn)" quantity_measured="cytotoxicity at 70.5 h" numeric_result=2.55

Summary for this compound, CS(=O)(=O)c1cc(Cl)cnc1C1CCN(C(=O)C2CCOCC2)CC1 : cytotoxicity at 70.5 h is 9.7

Noted for Cc1ccc(C(CCNCCN(C)C)C2CCOC(C)(C)C2)cc1 (stereo not drawn) : its cytotoxicity at 70.5 h reads -5.89

Form field cytotoxicity at 70.5 h, entry CSc1ncc(CN2CC(Oc3c(C)cccc3C)C2)cn1 : -2.81

Value of cytotoxicity at 70.5 h reported for the compound COCCC1(CO)CCCN(C(=O)CCC(F)(F)F)C1 (stereo not drawn) is -10.8

cytotoxicity at 70.5 h in this record for COc1cc(-c2cnnc(NCCCOC(C)C)n2)cc(OC)c1OC : 6.95

Record CC1CCCCN1C(=O)c1ccn(COc2ccc(F)cc2)n1 (stereo not drawn) . Reported cytotoxicity at 70.5 h: -9.66

cytotoxicity at 70.5 h reported for this compound CC(C)CN(C(=O)Nc1cccnc1)C1CC1 : -7.03

Documented cytotoxicity at 70.5 h of CS(=O)(=O)NCCCN1CCCCC1c1cc2ccccc2[nH]1 (stereo not drawn) : 33.9

Record CN1C(=O)CO[C@H](c2ccc(NC(=O)Cc3cccs3)cc2)[C@H]1CO . Reported cytotoxicity at 70.5 h: -6.23

Given item Cc1ncc2c(n1)CN(Cc1cn3ccsc3n1)CC2 , the value recorded as its cytotoxicity at 70.5 h is -0.474

The reported cytotoxicity at 70.5 h of the compound CN(C)S(=O)(=O)N1CCN(C(=O)c2cc(-c3ccccc3)[nH]n2)CC1 was -0.515

Reported cytotoxicity at 70.5 h for Cn1cc(Br)c(=O)c(NS(=O)(=O)c2ccccc2F)c1 was -9.33

// Cc1cc(C(F)(F)F)nn1CCCNC(=O)C1CCC1 : cytotoxicity at 70.5 h value = -4.63

cytotoxicity at 70.5 h reported for this compound O=C(NC[C@H]1CCCN1)c1cc(COc2cccc(C(F)(F)F)c2)[nH]n1 : -2.98

Per the record, O=c1ccc(-c2ccccc2F)nn1CCN1CCCS1(=O)=O has cytotoxicity at 70.5 h of -2.96

# compound Cc1cnn(CC2CCCCN2C(=O)c2cccc3c2OCO3)c1 (stereo not drawn) ; its cytotoxicity at 70.5 h = -8.6

Consider CCOc1cc(C(=O)N2CCN(CC)CC2)cc2occc12 . Its measured cytotoxicity at 70.5 h is -3.29

* * *

method: Human HepG2 cell viability assay in 384 well format
Type: toxicity, cell-based
Set-up: dose 125 nL, time 70.5 hour; concentration not given beside the values
particulars: HepG2 cells, read-out: Inhibition
Form field: cytotoxicity at 70.5 h (one value per entry).
Supply the numeric figure in %, leaving out any unit text.

Below, 4 compounds whose answers are already recorded.
compound="CC(=O)N1CCC(Cc2cnc(C(=O)N3CCCC3)cn2)C1 (stereo not drawn)" numeric_result=-4.28
compound=CCOC(=O)[C@H]1[C@@H](O)C(=O)N(C)C12CCN(C(=O)C(CC)CC)CC2 numeric_result=-3.26
compound="Cc1nc(CNC(C(=O)N2CCOCC2)C(C)C)oc1C (stereo not drawn)" numeric_result=-5.87
compound=Cc1nnc2n1CCN(C(=O)COCCOc1ccccc1)C2 numeric_result=-1.96

Value of cytotoxicity at 70.5 h reported for the compound Cc1nc(CN2CCN(C(=O)NC(C)Cn3ccnc3)CC2)cs1 (stereo not drawn) is -0.978

Looking up CCc1cc(C(=O)N2CCC(c3cc4ncccc4cn3)CC2)on1 , I found its cytotoxicity at 70.5 h recorded as -0.772

cytotoxicity at 70.5 h in this record for O=S(=O)(Cc1ccccc1Cl)CC(O)CO (stereo not drawn) : 4.74

Provenance of the data: ChEMBL document CHEMBL3507680
